Test system: metallo-beta-lactamase IMP-1 (Pseudomonas aeruginosa)
Test: IMP-1 metallo-beta-lactamase inhibitors, primary screen, biochemical, epi-absorbance readout, Pseudomonas aeruginosa enzyme (AID 1556);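 note: 0% = IMP-1 with DMSO and 100% = DMSO wells lacking enzyme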
Settings: purified IMP-1, nitrocefin hydrolysis, epi-absorbance fluorescence; at 5.6 µM; hits give high values
Among all 290,000 compounds or so, about 1,300 (0.45%) were called active. Only a selection was taken, and actives are over-represented in it overall.
Reported inhibition by item:
State just the number; it will be interpreted in %.

Worked examples, 3 compounds total:
# COMPOUND, inhibition, %
data = [
    ("Cc1cc(/C=C2\\SC(=O)N(C)C2=O)c(C)n1-c1cccc(C(=O)O)c1", -1.7),
    ("COc1cccc(OCC(=O)NNC(=O)c2cnccn2)c1", -3),
    ("O=C(Nc1cccc(-c2nc3ccccc3[nH]2)c1)c1ccc(C(=O)Nc2cccc(-c3nc4ccccc4[nH]3)c2)cc1", 4.99),
]

# ---- query compound ----
QUERY: Consider the compound CCCCCCC(O)(CCN1CCCCC1)c1ccccc1 (stereo not given) and give its measured inhibition.
RESULT: -1.94
